Source: ChEMBL document CHEMBL5154795

Tested on: Staphylococcus aureus
Test: Antibacterial activity against methicillin-resistant Staphylococcus aureus NRS 123 (USA400) incubated for 18 to 20 hrs by broth microdilution method
Format: functional
Conditions: time 18-20 hrs
measurement type: MIC (µg/mL)
State just the number; it will be interpreted in µg/mL.

Observe how each entry below is paired with its result.
molecule=C/C(=N\NC(=N)N)c1ccc(NC(=O)Nc2ccc(-c3ccco3)cc2)cc1 system_tested="Staphylococcus aureus" measurement_type=MIC readout_number=2
molecule=C/C(=N\NC(=N)N)c1ccc(NC(=O)Nc2ccc(/C=C/c3ccccc3)cc2)cc1 system_tested="Staphylococcus aureus" measurement_type=MIC readout_number=4
molecule=C/C(=N\NC(=N)N)c1ccc(NC(=O)Nc2ccc(-c3cccs3)cc2)cc1 system_tested="Staphylococcus aureus" measurement_type=MIC readout_number=4
molecule="CC(=O)NC[C@H]1CN(c2ccc(N3CCOCC3)c(F)c2)C(=O)O1 [LINEZOLID]" system_tested="Staphylococcus aureus" measurement_type=MIC readout_number=1
molecule=C/C(=N\NC(=N)N)c1ccc(NC(=O)Nc2ccc(/C=C/C3CCCCC3)cc2)cc1 system_tested="Staphylococcus aureus" measurement_type=MIC readout_number=4

Now take the following molecule into account.
Give its MIC value. Item: C/C(=N\NC(=N)N)c1ccc(NC(=O)Nc2ccc(/C=C/CC(C)C)cc2)cc1
4
